We begin with a simple list: items and their reported Ka.
# target.of.assay: T1, EKKAA immunoglobulin binding domain of SpAKKAA (Staphylococcus aureus, UniProt A0A0H3K686 37-92)
# T1 construct: also called SpA-EKKAA; E domain; not shown: N-terminal six histidyl tag (pET15b)
# procedure.summary: ELISA, antigen-coated plate, mAb titrated

{"binder": "mAb 2F2 (antibody, V domains shown, Mouse IgG2b hybridoma mAb) VH: VKLVESGGDLVKPGGSLKLSCAASRFTFSSYVMSWVRQTPEKRLEWVASIGSGGTTYYPDTVKGRFTISRDNARNILYLQMSSLRSDDTAMYYCTRGRGYGFAWYFDVWGAGTTVTVSS VL: TIVLTQSPAIMSASPGEKVTMTCSASSSVSYMYWYQQKPGSSPRLLIYDTSNLASGVPVRFSGSGSGTSYSLTISRMEAEDAATYYCQQWSSYPPTFGGGTKLEIK", "Ka [M⁻¹]": "1.72e+09"}
{"binder": "mAb 7E2 (antibody, V domains shown, Mouse IgG1 hybridoma mAb) VH: QIQLVQSGPELKKPGETVKISCKASGYTFTDYSVHWVKQAPGKGLKWMAWINTATGEPTFADDFKGRFAFSLETSARTAYLQINNLKNEDTATYFCAPQLTGPFAYWGHGTLVTVSA VL: DIQMTQSPASLSASVGETVTITCRASENIHNYLAWYQQKQGKSPQLLVYNAKTLTDGVPSRFSGSGSGTQFSLKINSLQAGDFGSYYCQHSWSIPYTFGGGTRLQIR", "Ka [M⁻¹]": "2.9e+08"}
{"binder": "mAb 3A6 (antibody, V domains shown, Mouse IgG1 hybridoma mAb) VH: QIQLVQSGPELKKPGETVKISCKASGYNFTDYSMHWVKQAPGKGLKWVGWINTETAESTYADDFKGRFAFSLETSASTAYLQINSLKDEDTATFFCAHFDCWGQGTTLTVSS VL: DVVMTQISLSLPVTLGDQASISCRASQSLVHSNGNTYLNWYLQKPGQSPKLLIHKVSNRFSGVPDRFSGSGSGTDFTLKISRVEAEDLGVYFCSQITYVPWTFGGGTKLEIK", "Ka [M⁻¹]": "1.38e+09"}
{"binder": "mAb 5A10 (antibody, V domains shown, Mouse IgG1 hybridoma mAb raised against SpAKKAA; also called 5A10-HRP; HRP-5A10) VH: EVKLVESGGGLVKPGGSLKLSCAASGFAFSNYDMSWVRQTPEKRLEWVATISSGGTYPYYPDSVKGRFTISRDNAKNTLYLQLSSLRSEDTALYYCARGGFLITTRDYYAMDYWGQGTSVTVSS VL: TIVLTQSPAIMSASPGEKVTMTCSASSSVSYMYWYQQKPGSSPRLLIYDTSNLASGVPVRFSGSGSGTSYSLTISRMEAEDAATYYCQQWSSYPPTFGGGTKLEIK", "Ka [M⁻¹]": "9.4e+09"}
{"binder": "mAb 8E2 (antibody, V domains shown, Mouse IgG1 hybridoma mAb) VH: KVQLQQSGAGLVKPGASVKLSCKASGYTFTEYSIHWVKQSSGQGLEWIGWFYPGSGYIKYNEKFKDKATLTADKSSSTVYMEFSRLTSEDSAVYFCARHGYGNYVGYAMDYWGQGTSVTVSS VL: DIQMTQSPASLSASVGETVTITCRASEIIYSYLAWYQQKQGKSPQLLVYFAKTLAEGVPSRFSGSGSGTQFSLKINSLQPEDFGIYYCQHHYGTPYTFGGGTKLEIK", "Ka [M⁻¹]": "1.4e+09"}
